These data points were gathered from patent US11254663B2.

# target_desc: FXR (Homo sapiens (Human), UniProt Q96RI1)
# Sequence (Q96RI1 262-486): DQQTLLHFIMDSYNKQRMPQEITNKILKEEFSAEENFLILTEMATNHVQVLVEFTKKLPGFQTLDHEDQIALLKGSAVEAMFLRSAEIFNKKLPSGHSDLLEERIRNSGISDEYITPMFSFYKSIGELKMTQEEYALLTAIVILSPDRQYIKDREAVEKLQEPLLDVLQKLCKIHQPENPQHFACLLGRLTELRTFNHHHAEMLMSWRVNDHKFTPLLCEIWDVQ
# assay_method_text: FXR EC50 (FXR agonist potency reported with each Example)
# Format: cell-based
metric_name: pEC50
Lab note — pEC50 values are minus log10 of concentrations in M.

Known results for compounds:
compound	pEC50
O=C(C1CC(F)(F)C1)N(CC12CCC(c3nc(C4CC4)no3)(CC1)CC2)c1cccc(-c2cnc(C3CCOCC3)o2)c1 [Example 36]	6.30
O=C(N(CC12CCC(c3noc(C45CC(F)(C4)C5)n3)(CC1)CC2)c1cccc(-c2nc(C3CC3)no2)c1)C12CC(F)(C1)C2 [Example 114]	6.75
Cn1nc(C2CC2)cc1C12CCC(CN(C(=O)C3CC(F)(F)C3)c3cccc(-c4nc(C5CC5)no4)c3)(CC1)CC2 [Example 127]	6.43
O=C(N(CC12CCC(c3ccc(C(F)(F)F)cn3)(CC1)CC2)c1cccc(-c2noc(C3CC3)n2)c1)C12CC(F)(C1)C2 [Example 185]	6.29
O=C(N(CC12CCC(c3nc(CC4CC4)no3)(CC1)CC2)c1cccc(-c2nc(CC3CC3)no2)c1)C12CC(F)(C1)C2 [Example 61]	7.00

Shifting focus to the compound that follows.
pEC50 for COc1cc(-c2cccc(N(CC34CCC(c5ccc(C(C)(C)C#N)cc5)(CC3)OC4)C(=O)C3CCC3)c2)ccn1 [Example 223] ?
6.50
